# credit: PubChem BioAssay

Assay: inhibitors of TNFa-induced NFkB p65 translocation, primary screen, imaging, HUVEC, MLSMR starter and 10KST1 sets (AID 438);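 also: compound added about 3h40 before a 20 min TNFalpha stimulation; signal is the nuclear over cytoplasmic p65 intensity ratio per well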
Settings: HUVEC TNFa-induced p65 nuclear translocation; at 2 µM, stronger effect = higher value, 0% TNFa-plus-vehicle, 100% no-TNFa wells
QUANTITY_NAME: inhibition (%)

COMPOUND | QUANTITY_NAME | REPORTED_MEASUREMENT
CCc1nc(N2CCCC2)c(C#N)c2c1CCCC2 | inhibition | 2.1
CC1(C)CCN(Cc2ccccc2)C1CC#N (configuration not stated) | inhibition | -1.7
CC(=O)c1cccc(-n2nnnc2SCC(=O)N2CCCC2)c1 | inhibition | -3.5
CCOC(=O)NC(Nc1cc(C)on1)(C(F)(F)F)C(F)(F)F | inhibition | -7.9
COc1ccc(C2NC(=O)NC(O)(C(F)(F)F)C2C(=O)c2ccc(F)cc2)cc1 (configuration not stated) | inhibition | 6.6
COc1ccc(-c2ccc(Nc3ccc(S(=O)(=O)N4CCCC4)cc3)nn2)cc1OC | inhibition | -6.1
CCCCC(=O)NC(Nc1ccc(C)cn1)(C(=O)OCC)C(F)(F)F (configuration not stated) | inhibition | -16.3
Cc1nnc(N2CCCCC2)c2ccccc12 | inhibition | -5.6
O=c1[nH]c(NCc2ccccc2)nc2c1CCCC2 | inhibition | 4.4
CCC(=O)Nc1cccc(-c2nnc(SCC(=O)NCc3ccco3)n2C)c1 | inhibition | -0.2
O=C(Cn1ncc2c(=O)oc3ccccc3c21)NCC1CCCO1 (configuration not stated) | inhibition | 6.6
CC1(C)Cc2c(C#N)c(SCCOc3ccccc3)nc(N3CCOCC3)c2CO1 | inhibition | -7.4

====

Target: Alpha-2C adrenergic receptor (Homo sapiens) (UniProt P18825)
Sequence (P18825 whole entry, looked up): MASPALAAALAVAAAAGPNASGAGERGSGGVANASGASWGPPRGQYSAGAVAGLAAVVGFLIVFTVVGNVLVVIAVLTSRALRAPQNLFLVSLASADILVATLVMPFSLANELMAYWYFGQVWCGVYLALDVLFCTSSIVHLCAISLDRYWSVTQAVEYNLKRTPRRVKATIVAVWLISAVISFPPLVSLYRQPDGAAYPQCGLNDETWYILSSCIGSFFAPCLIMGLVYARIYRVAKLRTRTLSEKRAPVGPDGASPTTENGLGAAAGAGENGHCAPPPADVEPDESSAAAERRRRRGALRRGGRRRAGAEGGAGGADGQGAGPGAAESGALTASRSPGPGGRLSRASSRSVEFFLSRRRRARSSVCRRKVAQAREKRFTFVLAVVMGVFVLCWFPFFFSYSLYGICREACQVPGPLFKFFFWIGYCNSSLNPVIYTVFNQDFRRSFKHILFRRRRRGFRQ
Assay: modulators of alpha2C/GIRK thallium flux, primary screen, cell-based, HEK293 alpha2C/GIRK1/2 (AID 624);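 also: slope of fluorescence ratio to pre-addition baseline per second over 15 to 24 s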
Conditions: thallium flux BTC fluorescence, at 10 µM, actives lie on both sides
Grouping key: slope. Bins: lower band (below 0.006), central band (0.006 to below 0.007), upper band (0.007 or more)

COMPOUND | DISCRETE_LABEL
N#Cc1cc2ccccc2nc1SCC(=O)Nc1ccccc1N1CCOCC1 | central band
COc1ccc(-n2c(=O)[nH]cc(C(=O)Nc3ccc(NC(C)=O)cc3)c2=O)cc1 | upper band
O=C(c1csc2ccccc12)n1cccn1 | lower band
CCCSc1nc2c(cnn2-c2ccc(Cl)cc2)c(=O)[nH]1 | upper band
CCOc1cccc(/C(O)=C2/C(=O)C(=O)N(CCN3CCOCC3)C2c2cccnc2)c1 (stereo unspecified) | lower band
COc1ccc(C)cc1S(=O)(=O)N(CC(=O)O)c1ccccc1 | central band
CC1=C(C(=O)Nc2ccccc2)C(c2ccccn2)n2nc(CCCO)nc2N1 (stereo unspecified) | central band
O=C(CSc1nnnn1-c1ccc(Cl)cc1)NC(=O)Nc1ccc2c(c1)OCCO2 | upper band
COc1nc(OC)nc(N2CCC(C(=O)NCc3cccs3)CC2)n1 | central band

====

Assay: inhibitors of Sendai virus-induced IRF3 signaling, primary screen, TLR/RLR signaling modifier project, cell-based, Sendai virus stimulus, luciferase, 10K MLSCN set (AID 602276);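 also: firefly luciferase from ISG56 promoter only with Renilla not read in this screen; 0% = Sendai virus plus DMSO and 100% = medium plus DMSO without virus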
Conditions: HEK293 RL24 IRF3 luciferase reporter, at 10 µM, stronger effect = higher value

MOLECULE | inhibition / %
Cc1c(C(=O)OCC(C)(C)CN(C)C)oc2ccccc12 | -31.4
COC(=O)c1sc(S(=O)(=O)NCc2cccs2)c(C(=O)OC)c1C | -0.645
COC(=O)C1=C(C)n2nnnc2NC1c1ccc(Cl)cc1 (stereo not drawn) | 2.58
CC1CN=C(N(C(=O)Nc2ccccc2)c2ccc(S(=O)(=O)N3CCOCC3)cc2)S1 (stereo not drawn) | 3.57
CCOc1ccccc1NC(=O)NC1CCN(CC(=O)Nc2ccc3c(c2)OCCO3)CC1 | 19.4
CCNc1ccc(C(=O)OCC)cc1NC(=O)c1cc(S(=O)(=O)N2CCOCC2)ccc1C | -4.65
CC(=O)Nc1ccc(S(=O)(=O)NCc2cn3c(C)csc3n2)cc1 | 1.88
CCOC(=O)C1CCN(C(=O)CCCCn2c(=O)[nH]c3ccccc3c2=O)CC1 | 0.817
Cc1noc(C)c1COC(=O)c1ccccc1Oc1ccccc1 | 4.67
CC(CCc1ccco1)NC(=O)Cn1ncc2c1-c1ccccc1OC2 (stereo not drawn) | -1.38
CC(C)(C)OC(=O)N1CCCC1C(=O)N1CCc2ccccc21 (stereo not drawn) | 10.9
CCOC(=O)C1CCN(c2c(NC3CCCc4ccccc43)c(=O)c2=O)CC1 (stereo not drawn) | 7.84
CCOc1ccc(Cn2nnc(C(=O)Nc3cc(C)cc(C)c3)c2N)cc1 | 2.58
CCc1nnc(NC(=O)C2CCCN2S(=O)(=O)c2ccc(C)cc2)s1 (stereo not drawn) | 2.82
Cc1ccc(N2CCN(c3ccc(C)cc3)C(CC(=O)O)C2=O)cc1 (stereo not drawn) | 5.38
COc1ccccc1CN1CCCC(C(=O)N(C)Cc2ccccc2)C1 (stereo not drawn) | 7.15
CC(=O)c1cccc(S(=O)(=O)N2CCC(n3nnc4cc(F)ccc43)CC2)c1 | -0.237
CCN1C(=O)c2ccccc2S(=O)c2ccc(C(=O)NC3CC3)cc21 (stereo not drawn) | 17.3
COC(=O)[C@@H](NC(=O)NCc1ccccc1Cl)C(C)C | 4.11
Cc1ccc2cc(C(c3nnnn3CC3CCCO3)N3CCCC4(CCCCC4)C3)c(=O)[nH]c2c1 (stereo not drawn) | 10.5
CCc1c(C)c2ccc(OCC(=O)OC)cc2oc1=O | 12.5
CCOC(=O)CNC(=O)Nc1nnc(-c2ccc(OCC)cc2)o1 | -14.6
O=c1[nH]c(N2CCc3ccccc32)nc2c1CCCC2 | 6.82

====

slope listing for selected compounds.
Target: Alpha-2C adrenergic receptor (Homo sapiens)
Assay: modulators of alpha2C/GIRK thallium flux, primary screen, cell-based, HEK293 alpha2C/GIRK1/2 (AID 624);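 also: slope of fluorescence ratio to pre-addition baseline per second over 15 to 24 s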
Details: thallium flux BTC fluorescence, at 10 µM, actives lie on both sides

COMPOUND | slope
CC1(C)NC(=O)N(CC(O)CN2CCCC2)C1=O (stereo unspecified) | 0.00702
CCN(CC)CCN1C(=O)C(O)=C(C(=O)c2cccs2)C1c1ccc(C)o1 (stereo unspecified) | 0.00478
CCCN1CCC(NC(=O)Nc2ccc(OC)c(OC)c2)CC1 | 0.00372
Nc1cc(-c2ccc(Br)cc2)nn1S(=O)(=O)c1ccccc1 | 0.00722
CC(C)(C)OC(=O)N1CCCC1C(=O)N1CCc2ccccc21 (stereo unspecified) | 0.00514
COc1cccc(NC(=O)N(Cc2ccco2)C(C)c2cccs2)c1 (stereo unspecified) | 0.00569
O=C1CN(C(=O)COC(=O)c2ccccc2NC(=O)c2ccco2)c2ccccc2N1 | 0.00572
CCOc1cc(C(=O)Nc2ncccn2)cc(OCC)c1OCC | 0.0062
Cc1ccc2oc(-c3ccccc3C(=O)O)cc(=O)c2c1 | 0.00399
CC(C)(C)OC(=O)N1CC=C2C(C#N)=C(N)C(C#N)(C#N)C(c3cccs3)C2C1 (stereo unspecified) | 0.00419
Cc1ccc(CNc2cc(-c3nn4c(C)nnc4s3)ccc2C)s1 | 0.00646

====

Test: DUSP6 inhibitors restoring Erk phosphorylation by chemical complementation, primary imaging in DUSP6-transfected HeLa (AID 609)
Conditions: HeLa MKP-3 transfected, phospho-Erk imaging KS statistic; measured here: nuclear c-Myc green intensity z-score; at 10 µM; cells stimulated with TPA for 15 min
Returns Condition met if the recorded z-score is greater than or equal to 0.3, and Condition not met otherwise.

COMPOUND | DISCRETE_LABEL
COC(=O)CC1=C(C(=O)OC)C(c2cccc(OCC(N)=O)c2)C(C#N)=C(N)O1 (configuration not stated) | Condition not met
Cc1cc(C)n(C2CCCCC2OC(=O)c2ccccc2)n1 (configuration not stated) | Condition met
O=C(O)CCc1nn2cc(-c3ccccc3)nc2[nH]c1=O | Condition not met
N#Cc1nc(COc2ccc(Br)cc2)oc1NCCN1CCOCC1 | Condition met
COCCCn1cnc2c(c1=O)c1nc3ccccc3nc1n2CCc1ccccc1 | Condition met
Cc1cc(Nc2ccc3ccccc3c2)n2ncnc2n1 | Condition met
CCOC(=O)c1[nH]c2ccccc2c1N=CN(CC)CC | Condition met
CCN1CCc2c(C#N)c(NCc3ccccc3)nc(N(CC)CC)c2C1 | Condition not met
CCOc1ccc(-c2nc(C#N)c(NCC(C)C)o2)cc1 | Condition not met
O=C1CC(C(=O)O)c2ccccc2N1 (configuration not stated) | Condition not met
CC1(C)Cc2c(C#N)c(SCc3nc4ccccc4[nH]3)nc(N3CCOCC3)c2CO1 | Condition met
O=C(Nc1ncccc1Cl)c1cccc(F)c1 | Condition not met
CCN(CC)CCCN1C(=O)C(=O)/C(=C(/O)c2ccc(OC)cc2)C1c1ccco1 (configuration not stated) | Condition met
Cn1ncc(N=Cc2ccccc2O)c1C(=O)N1CCOCC1 | Condition not met
COC(=O)C(NC(=O)c1ccccc1)(Nc1nc(C)cs1)C(F)(F)F (configuration not stated) | Condition not met
COc1ccc(/C(O)=C2/C(=O)C(=O)N(Cc3ccco3)C2c2cccs2)cc1 (configuration not stated) | Condition not met
O=C1C(=O)N(Cc2cccnc2)C(c2ccccn2)/C1=C(/O)c1ccccc1 (configuration not stated) | Condition met
CCCSc1nnc2n(Cc3ccccc3)c(=O)c3c4c(sc3n12)CCC4 | Condition not met
COn1c(SC2CCCCC2)nc2ccccc2c1=O | Condition met
Cc1nn2cnc3sc4c(c3c2nc1=O)CCCC4 | Condition not met
CC(=O)Nc1ccc(NCC(O)COc2ccccc2)cc1 (configuration not stated) | Condition not met
Cn1c(NCCCO)nc2c1c(=O)n(Cc1ccccc1F)c(=O)n2C | Condition not met
CC1(C)Cc2nc(NCCN3CCOCC3)c(C#N)cc2CO1 | Condition met
CC(NC(=O)NCc1cccnc1)(C(F)(F)F)C(F)(F)F | Condition met
CC(C)OCCCNc1ncnc2c1cnn2-c1ccccc1 | Condition met
CCC(=O)Nc1c(C#N)c2nc3ccccc3nc2n1C1CCCCC1 | Condition not met
COC(=O)c1sc(NC(=O)c2oc3ccccc3c2C)nc1C | Condition not met
O=C(/C=N/O)NCCCN1CCOCC1 | Condition not met
CC(C(=O)NC(=O)NCc1ccccc1)N1C(=O)c2ccccc2C1=O (configuration not stated) | Condition not met
O=C(CC(c1ccco1)S(=O)(=O)c1ccccc1)c1ccc(F)cc1 (configuration not stated) | Condition met
CN1CC2(C)CN(C(c3ccccc3)c3ccccc3)CC(C)(C1)C2O (configuration not stated) | Condition not met
CCN(CC)CCNc1ncnc2c1[nH]c1ccc(OC)cc12 | Condition not met
O=C1C2ON(c3ccccc3)C(c3cccnc3)C2C(=O)N1c1ccc(Cl)c(Cl)c1 (configuration not stated) | Condition not met
CCCOC(=O)CSC1=C(C#N)C(c2ccc3c(c2)OCO3)CC(=O)N1 (configuration not stated) | Condition not met
O=C(c1ccccc1)n1c(=S)nc2ccccn21 | Condition not met
CCc1cc(=O)oc2cc(C)c(CN3CCCC(C)C3)c(O)c12 (configuration not stated) | Condition met
N#Cc1nc(COc2ccc(Br)cc2)oc1N1CCN(Cc2ccccc2)CC1 | Condition not met
c1ccc2c(c1)[nH]c1c(N3CCN(C4CCCCC4)CC3)ncnc12 | Condition not met
COc1cccc(C2/C(=C(\O)c3ccc(OC)c(OC)c3)C(=O)C(=O)N2c2cc(C)on2)c1 (configuration not stated) | Condition not met
CC(C)c1[nH]c(=O)c(C#N)c2c1CSC(C)(C)C2 | Condition not met
O=C(NCc1ccccc1)C1C(=O)N(Cc2ccccc2)C(=O)C1C1(O)CCCC1 (configuration not stated) | Condition met
COC(=O)CSCC(=O)Nc1cc2c(cc1C(C)=O)OCO2 | Condition not met
CCc1nc(NCC2CCCO2)c(C#N)c2c1COC(C)(C)C2 (configuration not stated) | Condition not met
CCn1c(SCC(=O)N2CCOCC2)nc2sc3c(c2c1=O)CCCC3 | Condition not met
COc1cccc(OC)c1C(=O)Nc1nc2ccc(S(C)(=O)=O)cc2s1 | Condition met
Oc1ccc2ccccc2c1C=NC12CN3CCN(CN(C3)C1)C2 | Condition met
